B1: GFP aptamer (parent)
chain: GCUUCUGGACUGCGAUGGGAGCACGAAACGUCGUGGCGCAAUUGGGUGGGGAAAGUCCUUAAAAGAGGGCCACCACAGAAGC

- Variants of: B1
- PROCEDURE_DETAILS: HiTS-RAP
- STATED_CONDITIONS: with EGFP
PROPERTY: pKd
Quick note: pKd means taking -log10 of the concentration in moles per liter.

Solved cases (3 shown):
U34G
8.22
U59C
7.78
A41G
8.23

Using the record for C37U C73U , report its pKd.
7.62

Using the record for C73U C74U , report its pKd.
8.12

Using the record for "C82U" , report its pKd.
8.38
